# Tested on: SETFA
# PROCEDURE SUMMARY: Post-emergence herbicidal activity, glasshouse pot test
# Assay type: in vivo
# TEST PARAMETERS: Setaria faberi; application post-emergence; rate 1000 g/Ha; evaluated after 13 days
# Experimental: Seeds of a variety of test species were sown in standard soil in pots. […] After 13 days, the test was evaluated (5=total damage to plant; 0=no damage to plant).
REPORTED ENDPOINT: Post-emergence herbicidal activity SETFA (damage score 0-5)

Study these solved cases before continuing.
INSERT INTO measurements (compound, result) VALUES
  ('CN1C(=O)N(c2cc(C(F)(F)F)ccn2)C(O)C1C(F)(F)F (stereo not drawn)', 2),
  ('COc1ccncc1-c1cnc(N2C(=O)N(C)C(C)C2O)cc1C(F)(F)F (stereo not drawn)', 4),
  ('CCOC1C(OC(=O)[C@@H]2[C@@H](C=C(Cl)Cl)C2(C)C)N(c2cc(C(F)(F)F)ccn2)C(=O)N1C (stereo partly drawn)', 0);

Lab book: Post-emergence herbicidal activity SETFA (damage score 0-5) of COC1C(O)N(c2cc(C(F)(F)F)c(I)cn2)C(=O)N1C (stereo not drawn) noted as 5

Notebook: CC1C(O)N(c2cc(C(F)F)ccn2)C(=O)N1C (stereo not drawn) , Post-emergence herbicidal activity SETFA (damage score 0-5) read as 5

Post-emergence herbicidal activity SETFA (damage score 0-5) reported for this compound CCOC1C(O)N(c2ccc(C(F)(F)F)cn2)C(=O)N1C (stereo not drawn) : 4

GET /value?item= CC(C)OC1C(O)N(c2cc(C(F)(F)F)ccn2)C(=O)N1C (stereo not drawn) &field=Post-emergence herbicidal activity SETFA (damage score 0-5) returns 4

Entry under test: CN1C(=O)N(c2cc(C(F)(F)F)c(I)cn2)C(O)C1O (stereo not drawn) . Its Post-emergence herbicidal activity SETFA (damage score 0-5) was 5

Sure, the documented Post-emergence herbicidal activity SETFA (damage score 0-5) for CCOC1C(O)N(c2cc(C(C)(C)F)ccn2)C(=O)N1C (stereo not drawn) is 5

----------
# Test system: ABUTH
# PROCEDURE SUMMARY: Pre-emergence herbicidal activity, glasshouse pot test
# Assay type: in vivo
# TEST PARAMETERS: rate 1000 g/Ha, evaluated after 13 days, scale 0-5
REPORTED ENDPOINT: ABUTH damage score, application pre-emergence

INSERT INTO results (compound, result) VALUES
  ('CON1C(=O)N(c2cc(C(F)(F)Cl)ccn2)C(O)[C@@H]1C (stereo partly drawn)', 3),
  ('COc1cncc(-c2cnc(N3C(=O)N(C)C(C)C3O)cc2C(F)(F)F)c1 (stereo not drawn)', 5);

Entry CCOC1C(O)N(c2cc(C(F)(F)F)c(C)cn2)C(=O)N1C (stereo not drawn) , ABUTH data, ABUTH damage score, application pre-emergence value: 5

ABUTH damage score, application pre-emergence value, target or system ABUTH, for CON1C(=O)N(c2cc(C(F)(F)F)ccn2)C(O)[C@@H]1C (mixture of isomers) : 4

ABUTH damage score, application pre-emergence of COC[C@H]1C(O)N(c2cc(C(F)(F)F)ccn2)C(=O)N1C (stereo partly drawn) , assay on ABUTH, is 5

Tested on ABUTH, the item CC1C(O)N(c2cc(C(F)(F)C(F)(F)F)ccn2)C(=O)N1C (single isomer, unassigned) showed ABUTH damage score, application pre-emergence equal to 5

Sample CC1C(O)N(c2ccc(C(=O)NC(C)(C)C)cn2)C(=O)N1C (stereo not drawn) , system: ABUTH. Its ABUTH damage score, application pre-emergence is 5

Known value: ABUTH ABUTH damage score, application pre-emergence of the compound CN1C(=O)N(c2cc(C(F)(F)F)ccn2)C(O)C1O (stereo not drawn) equals 5

// ABUTH damage score, application pre-emergence (ABUTH) for CC(C)OC1C(O)N(c2cc(C(F)(F)F)ccn2)C(=O)N1C (stereo not drawn) = 5

Result for CCN1CC(O)N(c2cc(C(F)(F)F)ccn2)C1=O (stereo not drawn) , tested on ABUTH, ABUTH damage score, application pre-emergence: 5

Item CCOC1C(OC(=O)[C@@H]2[C@@H](C=C(Cl)Cl)C2(C)C)N(c2cc(C(F)(F)F)ccn2)C(=O)N1C (stereo partly drawn) ; assay system ABUTH; ABUTH damage score, application pre-emergence reported as 0

The measured ABUTH damage score, application pre-emergence that CC1C(O)N(c2cc(Cl)c(C(=O)NC(C)(C)C)cn2)C(=O)N1C (stereo not drawn) showed for ABUTH is 5

Entry COCC1C(O)N(c2cc(C(F)(F)F)ccn2)C(=O)N1C (racemic) : ABUTH damage score, application pre-emergence on ABUTH = 5

Item COC(C)(C)c1ccnc(N2C(=O)N(C)C(C)C2O)c1 (stereo not drawn) ; assay system ABUTH; ABUTH damage score, application pre-emergence reported as 5

Log: ABUTH, compound CC(=O)Nc1cnc(N2C(=O)N(C)C(C)C2O)cc1C(F)(F)F (single isomer, unassigned) , ABUTH damage score, application pre-emergence = 5
